measurement notes: Oral bioavailability in Sprague-Dawley rat at 10 mg/kg
Format: ADME, organism-based
experimental conditions: in vivo
parameter measured: bioavailability (%)
Provide the reading as a plain figure in %.

O=C(c1ccc(-c2ccc(Cl)cc2)o1)N1CCN(C2CCCCC2)CC1 : 48
CC(C)(C)c1ccc(-c2ccc(C(=O)N3CCN(C4CCCCC4)CC3)o2)cc1 : 7
O=C(c1ccc(-c2ccc(Cl)cc2)o1)N1CCNCC1 : 42

Now consider a different compound.
Please give the measured bioavailability for this compound: Nc1nnc(-c2cccc(Cl)c2Cl)c(N)n1 [LAMOTRIGINE]
79

----------
Cmax values for the molecules below.
measurement notes: Cmax in Sprague-Dawley rat at 10 mg/kg, po
Type: ADME, organism-based
Parameters: dose 10 mg/kg, route oral
experimental conditions: in vivo
Provide the reading as a plain figure in ng/mL.

O=C(c1ccc(-c2ccc(Cl)cc2)o1)N1CCN(C2CCCCC2)CC1 : 470
CC(C)(C)c1ccc(-c2ccc(C(=O)N3CCN(C4CCCCC4)CC3)o2)cc1 : 570
Nc1nnc(-c2cccc(Cl)c2Cl)c(N)n1 [LAMOTRIGINE] : 3500

Now consider a different molecule.
Please give the measured Cmax for this molecule: "O=C(c1ccc(-c2ccc(Cl)cc2)o1)N1CCNCC1"
130

----------
experimental target: Sodium channel protein type 2 subunit alpha (Homo sapiens, UniProt Q99250)
Sequence (Q99250 whole entry): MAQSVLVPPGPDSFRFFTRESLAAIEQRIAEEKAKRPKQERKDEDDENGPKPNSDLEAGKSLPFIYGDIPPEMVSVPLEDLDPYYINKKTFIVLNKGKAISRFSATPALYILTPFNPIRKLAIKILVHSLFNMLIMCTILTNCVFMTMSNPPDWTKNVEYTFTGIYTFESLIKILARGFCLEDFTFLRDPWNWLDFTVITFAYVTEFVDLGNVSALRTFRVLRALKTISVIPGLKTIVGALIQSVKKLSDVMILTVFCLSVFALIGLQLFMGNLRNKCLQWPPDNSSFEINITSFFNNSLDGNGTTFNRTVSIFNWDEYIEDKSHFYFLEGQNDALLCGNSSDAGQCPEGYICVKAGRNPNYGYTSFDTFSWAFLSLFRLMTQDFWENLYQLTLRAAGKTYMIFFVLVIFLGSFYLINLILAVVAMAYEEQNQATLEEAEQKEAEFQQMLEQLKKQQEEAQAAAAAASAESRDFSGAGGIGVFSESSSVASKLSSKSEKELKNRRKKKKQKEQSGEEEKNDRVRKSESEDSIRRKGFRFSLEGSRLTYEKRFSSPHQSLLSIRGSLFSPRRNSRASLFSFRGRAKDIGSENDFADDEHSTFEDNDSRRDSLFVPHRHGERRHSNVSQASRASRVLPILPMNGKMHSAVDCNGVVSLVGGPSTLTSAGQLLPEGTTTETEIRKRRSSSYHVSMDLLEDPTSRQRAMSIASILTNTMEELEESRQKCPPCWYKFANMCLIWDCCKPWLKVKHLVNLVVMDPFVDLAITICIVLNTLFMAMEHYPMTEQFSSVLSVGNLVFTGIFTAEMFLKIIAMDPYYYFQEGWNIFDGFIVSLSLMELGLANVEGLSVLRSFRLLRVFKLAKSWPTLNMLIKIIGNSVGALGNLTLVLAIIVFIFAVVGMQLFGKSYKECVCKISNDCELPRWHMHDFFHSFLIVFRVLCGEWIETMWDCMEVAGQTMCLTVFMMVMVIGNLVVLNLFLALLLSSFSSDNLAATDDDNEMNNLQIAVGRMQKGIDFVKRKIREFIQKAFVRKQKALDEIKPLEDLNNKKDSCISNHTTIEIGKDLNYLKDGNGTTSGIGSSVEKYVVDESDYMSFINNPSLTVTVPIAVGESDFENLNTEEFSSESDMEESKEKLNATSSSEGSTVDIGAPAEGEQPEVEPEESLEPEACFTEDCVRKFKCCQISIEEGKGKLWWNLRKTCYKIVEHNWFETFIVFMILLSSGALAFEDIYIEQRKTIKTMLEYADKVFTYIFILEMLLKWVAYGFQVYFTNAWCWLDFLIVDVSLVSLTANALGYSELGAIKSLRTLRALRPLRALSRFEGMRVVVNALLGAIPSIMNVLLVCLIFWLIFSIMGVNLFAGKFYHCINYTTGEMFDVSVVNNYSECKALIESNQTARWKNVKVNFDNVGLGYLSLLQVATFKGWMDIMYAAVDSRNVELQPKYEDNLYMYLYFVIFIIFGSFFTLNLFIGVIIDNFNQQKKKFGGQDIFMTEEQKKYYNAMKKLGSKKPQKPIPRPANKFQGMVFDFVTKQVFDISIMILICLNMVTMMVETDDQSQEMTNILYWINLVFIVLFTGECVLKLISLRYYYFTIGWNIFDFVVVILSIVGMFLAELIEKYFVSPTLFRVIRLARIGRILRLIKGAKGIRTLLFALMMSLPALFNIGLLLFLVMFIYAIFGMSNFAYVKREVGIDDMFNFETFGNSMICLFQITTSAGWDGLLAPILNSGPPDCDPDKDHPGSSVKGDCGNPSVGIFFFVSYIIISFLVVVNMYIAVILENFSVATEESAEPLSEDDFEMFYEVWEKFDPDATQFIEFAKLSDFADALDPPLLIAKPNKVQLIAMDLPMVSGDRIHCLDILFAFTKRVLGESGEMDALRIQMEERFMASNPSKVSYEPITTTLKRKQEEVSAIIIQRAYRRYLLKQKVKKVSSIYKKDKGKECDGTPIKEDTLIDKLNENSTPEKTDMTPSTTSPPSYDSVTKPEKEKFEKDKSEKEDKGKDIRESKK
measurement notes: Inhibition of human recombinant Nav1.2 channel expressed in HEK293 cells by whole cell voltage clamp technique
Type: cell-based
parameter measured: IC50 (nM)
Provide the reading as a plain figure in nM.

The following compounds have reported results that may help.
O=C(c1ccc(-c2ccc(Cl)cc2)o1)N1CCN(C2CCCCC2)CC1 : 350
Cc1cccc(C)c1OCC(C)N (centres undefined) [MEXILETINE] : 2900
Nc1nnc(-c2cccc(Cl)c2Cl)c(N)n1 [LAMOTRIGINE] : 10000

Please give the measured IC50 for this compound: "O=C(c1ccc(-c2ccc(Cl)cc2)o1)N1CCNCC1"
1100

----------
experimental target: Sodium channel protein type 10 subunit alpha (Rattus norvegicus, UniProt Q62968)
Sequence (Q62968 whole entry): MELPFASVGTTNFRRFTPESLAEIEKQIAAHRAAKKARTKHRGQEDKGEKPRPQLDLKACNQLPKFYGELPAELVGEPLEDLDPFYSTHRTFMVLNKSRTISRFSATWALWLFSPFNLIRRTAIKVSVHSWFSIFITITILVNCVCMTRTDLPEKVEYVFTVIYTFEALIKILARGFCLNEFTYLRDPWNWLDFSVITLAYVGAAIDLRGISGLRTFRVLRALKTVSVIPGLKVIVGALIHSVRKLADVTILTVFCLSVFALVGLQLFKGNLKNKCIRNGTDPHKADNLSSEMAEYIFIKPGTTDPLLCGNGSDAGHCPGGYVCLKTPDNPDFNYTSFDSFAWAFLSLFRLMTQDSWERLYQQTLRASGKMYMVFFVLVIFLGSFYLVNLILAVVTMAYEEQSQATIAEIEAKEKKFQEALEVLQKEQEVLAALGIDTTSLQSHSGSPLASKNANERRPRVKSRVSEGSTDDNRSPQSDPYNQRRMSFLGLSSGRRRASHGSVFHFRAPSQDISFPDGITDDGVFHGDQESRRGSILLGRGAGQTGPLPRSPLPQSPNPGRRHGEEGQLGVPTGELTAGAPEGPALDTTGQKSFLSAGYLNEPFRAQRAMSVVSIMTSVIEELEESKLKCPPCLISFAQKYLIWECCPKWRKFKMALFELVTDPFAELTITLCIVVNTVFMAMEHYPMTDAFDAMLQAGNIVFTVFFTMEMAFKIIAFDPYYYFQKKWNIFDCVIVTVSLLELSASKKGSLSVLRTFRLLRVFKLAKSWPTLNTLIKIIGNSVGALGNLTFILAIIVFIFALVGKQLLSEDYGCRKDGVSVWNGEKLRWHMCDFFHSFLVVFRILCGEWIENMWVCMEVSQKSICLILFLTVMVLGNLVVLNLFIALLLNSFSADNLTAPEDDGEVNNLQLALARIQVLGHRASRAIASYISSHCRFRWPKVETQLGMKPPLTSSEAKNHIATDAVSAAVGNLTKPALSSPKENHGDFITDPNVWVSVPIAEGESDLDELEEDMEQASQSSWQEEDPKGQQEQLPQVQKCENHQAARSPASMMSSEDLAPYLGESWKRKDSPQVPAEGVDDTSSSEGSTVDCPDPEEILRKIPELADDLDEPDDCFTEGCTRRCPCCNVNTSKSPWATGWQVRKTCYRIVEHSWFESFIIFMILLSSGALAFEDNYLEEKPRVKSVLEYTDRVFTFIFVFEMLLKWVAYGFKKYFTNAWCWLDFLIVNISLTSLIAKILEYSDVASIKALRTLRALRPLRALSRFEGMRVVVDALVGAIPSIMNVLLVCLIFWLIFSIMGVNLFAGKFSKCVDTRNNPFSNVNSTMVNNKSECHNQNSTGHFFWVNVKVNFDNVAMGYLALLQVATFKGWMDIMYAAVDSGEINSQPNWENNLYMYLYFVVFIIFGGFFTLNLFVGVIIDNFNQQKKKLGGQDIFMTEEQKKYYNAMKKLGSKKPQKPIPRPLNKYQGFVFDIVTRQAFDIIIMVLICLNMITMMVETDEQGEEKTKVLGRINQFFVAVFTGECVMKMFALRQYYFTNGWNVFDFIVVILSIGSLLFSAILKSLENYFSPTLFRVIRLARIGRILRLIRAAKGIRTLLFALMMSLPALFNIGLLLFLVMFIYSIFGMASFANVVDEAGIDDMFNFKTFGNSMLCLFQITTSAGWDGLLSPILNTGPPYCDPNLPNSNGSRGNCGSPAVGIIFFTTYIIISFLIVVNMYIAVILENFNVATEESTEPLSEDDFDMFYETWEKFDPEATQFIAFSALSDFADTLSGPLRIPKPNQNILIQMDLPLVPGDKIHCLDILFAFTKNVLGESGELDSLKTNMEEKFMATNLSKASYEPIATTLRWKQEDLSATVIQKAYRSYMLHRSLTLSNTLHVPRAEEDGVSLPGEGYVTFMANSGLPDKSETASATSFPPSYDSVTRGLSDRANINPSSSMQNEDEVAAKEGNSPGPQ
measurement notes: Blockade of Nav1.8 channel in rat dorsal root ganglion neurons assessed as inhibition of TTX-R current by whole cell patch clamp technique
parameter measured: IC50
Please append the unit to your numeric answer.

O=C(c1ccc(-c2ccc(Cl)cc2)o1)N1CCNCC1 : 430 nM

Please give the measured IC50 for this compound: "CC(C)(C)c1ccc(-c2ccc(C(=O)N3CCN(C4CCCCC4)CC3)o2)cc1"
90 nM

Continue with Nc1nnc(-c2cccc(Cl)c2Cl)c(N)n1 [LAMOTRIGINE]
25000 nM

Continue with "O=C(c1ccc(-c2ccc(Cl)cc2)o1)N1CCN(C2CCCCC2)CC1"
390 nM

Continue with Cc1cccc(C)c1OCC(C)N (stereo not given) [MEXILETINE]
31000 nM

# credit: ChEMBL document CHEMBL1150418
